# Test system: M19-MEL
# Measurement Notes: NCI tumour cell line growth inhibition, 48 h
The source made the active and inactive calls. Cut-off read from the data, not from the text of the source: active = GI50 up to about 1.1 µM and inactive = higher.
Form entry, call: pick from active, inactive

Solved entries:
NC1c2ccccc2Nc2ccccc21 ... inactive
CCOC(=O)C1=C(c2ccccc2)N(C(C)=O)Cc2ccccc21 ... inactive
O=C1C2=C(C(c3ccccc3)=C1c1ccccc1)c1ccccc1C1(c3ccccc3)C2=C(O)C(c2ccccc2)=C1c1ccccc1 (stereo unspecified) ... inactive

Input: Could you please tell me the result logged for "CCN(CC)c1ccc(/N=C2\C=C(Cl)C(=O)c3ncccc32)c(C)c1" in this assay?
Output: inactive

Input: Now consider "CC[n+]1c(/C=C/c2ccc(N(CCCl)CCCl)cc2)ccc2cc(I)ccc21" .
Output: active

Input: Now consider "COC(=O)N/N=C(\Cc1ccccc1)CN(C)C" .
Output: inactive

Input: Now consider CCCCCC#COC1CC(C)CC[C@@H]1C(C)C (stereo partly specified) .
Output: inactive
